Target: Rac GTPase-activating protein 1 (Homo sapiens)
Assay: blockers of MgcRacGAP-driven Rac1 GTP hydrolysis – biochemical, ADP Hunter fluorescence, primary and confirmatory, confirmation (AID 624330);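 also: fluorescence reports GDP produced by GAP-driven GTP hydrolysis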
Settings: MgcRacGAP-stimulated Rac1 GTP hydrolysis, at 30 µM, stronger effect = higher value, GST-tagged Rac1 F28L mutant substrate
The campaign covered roughly 340,000 compounds. About 2,100 (0.62%) were called active. The list is a sample of the results. Potency and affinity values are given separately.
We use 10% as the dividing line for inhibition: on or above the line is 1 (yes), below is 0 (no).

Enquiry: Please check the record "O=C(NNC(=O)c1ccc([N+](=O)[O-])cc1)NC1CCCCC1" and state if its inhibition is at or above 10%.
Return: 0 (no)

Enquiry: Check the entry "CC(=O)Nc1nc(=S)ss1" : does inhibition equal or exceed 10%?
Return: 1 (yes)

Enquiry: State whether the measured inhibition reaches 10%, counting equality as reaching it, for "CC(C)(C)C(=O)Nc1nc(=S)ss1"
Return: 1 (yes)

Enquiry: For this molecule, is measured inhibition 10% or higher? "Clc1ccc(C=NN2CCCCCC2)cc1"
Return: 0 (no)

Enquiry: Quick check, inhibition >= 10%? "COc1ccc(N2CCN(C(=O)c3sc4ncn(CC(=O)N5CCCCC5)c(=O)c4c3C)CC2)cc1"
Return: 1 (yes)

Enquiry: Would you say "Cc1ccc(Cl)cc1N1CCN(C(=O)C2CCN(S(=O)(=O)c3cnc[nH]3)CC2)CC1" shows inhibition at minimum 10%?
Return: 0 (no)

###

Please respond with reported inhibition for every item in the list.
Biological target: Rac GTPase-activating protein 1 (Homo sapiens) (UniProt Q9H0H5)
Sequence (Q9H0H5 whole entry, looked up): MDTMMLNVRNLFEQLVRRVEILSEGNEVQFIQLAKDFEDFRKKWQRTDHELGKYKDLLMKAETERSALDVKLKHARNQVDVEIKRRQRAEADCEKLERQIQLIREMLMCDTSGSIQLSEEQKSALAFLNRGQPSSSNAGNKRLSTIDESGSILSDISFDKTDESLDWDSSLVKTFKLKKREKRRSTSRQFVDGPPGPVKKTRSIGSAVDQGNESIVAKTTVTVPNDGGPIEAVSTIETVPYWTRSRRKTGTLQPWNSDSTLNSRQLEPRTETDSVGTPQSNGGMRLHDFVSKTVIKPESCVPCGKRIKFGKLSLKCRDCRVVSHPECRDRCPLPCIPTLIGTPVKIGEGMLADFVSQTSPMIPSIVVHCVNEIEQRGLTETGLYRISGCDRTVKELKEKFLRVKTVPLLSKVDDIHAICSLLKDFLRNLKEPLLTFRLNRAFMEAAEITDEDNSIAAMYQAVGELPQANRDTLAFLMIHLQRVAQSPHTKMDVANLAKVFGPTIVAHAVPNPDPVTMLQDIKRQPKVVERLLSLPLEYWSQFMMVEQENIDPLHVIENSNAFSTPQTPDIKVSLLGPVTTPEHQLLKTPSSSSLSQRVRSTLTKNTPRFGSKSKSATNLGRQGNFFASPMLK
Assay: blockers of MgcRacGAP-driven Rac1 GTP hydrolysis – biochemical, ADP Hunter fluorescence, primary and confirmatory, confirmation (AID 624330);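 also: fluorescence reports GDP produced by GAP-driven GTP hydrolysis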
Details: MgcRacGAP-stimulated Rac1 GTP hydrolysis, at 30 µM, stronger effect = higher value, GST-tagged Rac1 F28L mutant substrate
The campaign covered roughly 340,000 compounds. About 2,100 (0.62%) were called active. Not all results are given here. Entries with a potency or affinity are not part of this list.
Number only, in %; omit the unit.

Enquiry: // lookup inhibition for "CCc1ccc(N2CCN(C(=O)N3CCOCC3)CC2)cc1"
Return: 7.01

Enquiry: Request the reported inhibition associated with "CC(=O)N1CCN(c2ccc(NC(=O)c3ccc(Cl)cc3)cc2)CC1"
Return: 4.31

Enquiry: Look at this molecule and give its reported inhibition. "Fc1ccc(C2=Nc3cccc4cccc(c34)N2)cc1"
Return: 16.5

Enquiry: If you can, please state the reported inhibition value of "O=S(=O)(c1ccc(NCc2ccccc2)cc1)N1CCOCC1" .
Return: 5.28

Enquiry: Reported inhibition for "COc1ccc(/C=C/C(=O)Oc2cc(C)[nH]c(=O)c2[N+](=O)[O-])cc1OC" : what is it?
Return: -3.35

Enquiry: Which inhibition value is on record for "O=C(CCc1ccccc1)n1nc(-c2ccccc2)nc1NCc1ccco1" ?
Return: 7.46

Enquiry: Would you mind telling me what inhibition value was observed for "Cc1ccc(CNc2ccc(N3CCOCC3)c(C(=O)O)c2)s1" ?
Return: 6.12

Enquiry: Request the reported inhibition associated with "CC(=O)N1CCN(c2ccc(NCc3ccc(C)s3)cc2)CC1"
Return: 30.4

Enquiry: Please look up its inhibition: "N#Cc1cccc(NC(=O)CNc2cccc(S(=O)(=O)N3CCCC3)c2)c1"
Return: -1.55

Enquiry: Any idea what inhibition was measured for "CC1=Nc2cccc3cccc(c23)N1" ?
Return: -4.86

Enquiry: Please report the recorded inhibition for "Cn1c(=O)c2c(nc(Oc3ccc(-c4ccccc4)cc3)n2C)n(C)c1=O" .
Return: 12.2

Data origin, for the record: PubChem BioAssay AID624330
